# settings: in water, 337.55 K
observedProperty: solubility (mole fraction)
In your answer, state the number alone without any accompanying words.

Provide one value: measured solubility (mole fraction) of `O=C(O)CCP(=O)(O)c1ccccc1`
0.0249

====

# settings: in acetonitrile, 319.55 K
observedProperty: solubility (mole fraction)

Provide one value: measured solubility (mole fraction) of O=P1(O)OCC2(CO1)COP(=O)(O)OC2 (stereo unspecified)
0.0015

====

# settings: in methanol, 298.24 K
observedProperty: solubility (mole fraction)
In your answer, state the number alone without any accompanying words.

Provide one value: measured solubility (mole fraction) of O=P1(Oc2ccccc2)OCC2(CO1)COP(=O)(Oc1ccccc1)OC2 (stereo unspecified)
0.00298
